The values you see were collected from patent CN115873113A.

We begin with a simple list: items and their reported log10(Kd).
Target: T1, Biotin-CaSR蛋白 (人体细胞外钙敏感受体, Human extracellular calcium-sensing receptor) (human, UniProt P41180 20-870, limits assumed, biotinylated (Biotin-CaSR); site not stated)
T1 construct: Purified, detergent-solubilised CaSR; It was biotinylated and captured on NeutrAvidin plates for ELISA or on streptavidin biosensors for Octet
T1 sequence (looked up): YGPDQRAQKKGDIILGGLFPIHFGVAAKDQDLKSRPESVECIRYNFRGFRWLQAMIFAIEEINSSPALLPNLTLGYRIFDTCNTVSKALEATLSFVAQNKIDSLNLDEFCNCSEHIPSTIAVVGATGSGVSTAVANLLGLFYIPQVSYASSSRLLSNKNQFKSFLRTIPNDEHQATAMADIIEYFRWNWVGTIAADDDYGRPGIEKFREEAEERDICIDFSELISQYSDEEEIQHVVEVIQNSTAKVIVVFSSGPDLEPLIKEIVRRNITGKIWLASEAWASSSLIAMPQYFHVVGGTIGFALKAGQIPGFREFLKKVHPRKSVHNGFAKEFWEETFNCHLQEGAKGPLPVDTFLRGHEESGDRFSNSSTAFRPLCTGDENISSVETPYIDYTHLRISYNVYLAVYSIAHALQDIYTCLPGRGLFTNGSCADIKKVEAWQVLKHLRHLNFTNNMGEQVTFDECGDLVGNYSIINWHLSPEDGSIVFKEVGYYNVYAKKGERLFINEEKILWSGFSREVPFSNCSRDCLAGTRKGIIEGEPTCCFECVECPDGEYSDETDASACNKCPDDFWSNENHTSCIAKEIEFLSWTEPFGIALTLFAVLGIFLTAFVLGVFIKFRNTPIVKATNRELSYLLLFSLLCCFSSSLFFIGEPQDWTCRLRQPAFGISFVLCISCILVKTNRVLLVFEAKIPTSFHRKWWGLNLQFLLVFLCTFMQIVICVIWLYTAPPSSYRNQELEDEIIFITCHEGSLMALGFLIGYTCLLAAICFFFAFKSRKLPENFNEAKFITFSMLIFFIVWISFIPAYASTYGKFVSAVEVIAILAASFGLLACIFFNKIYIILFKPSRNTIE
Experiment: BLI (Octet-Red96), Biotin-CaSR on streptavidin biosensor, nanobody in solution
For clarity, the numbers are log10 values of Kd expressed in nM.

// known answers, use as guide
[
  {
    "BINDER": "纳米抗体2D11 (VHH, Camel VHH expressed in E. coli and purified on a nickel column; It was detected through an HA tag; also called 抗体株2D11) VHH: QVQLQESGGGSVQAGGSLRLSCAASGFPISTYDMGWFRQAPGKEREGVVGITDSFSIKYEDSVKGRFTISRDNAKNALYLQMNSLKPEDTGMYYCAAGDARWSLLLRAEQYNYWGQGTQVTVSS",
    "log10(Kd)": -0.62
  },
  {
    "BINDER": "纳米抗体1C12 (VHH, Camel VHH expressed in E. coli and purified on a nickel column; also called 抗体株1C12) VHH: QVQLQESGGGSVQAGGSLRLSCTASRYTYNSPLYMAWFRQAPGKEREGVAHIDSDGSITYTDSVKGRFTISRDNAKTTLYLQMNNLNPEDTAMYYCAADPLHRWSHRLEAIGYRYWGQGTQVTVSS",
    "log10(Kd)": -0.05
  },
  {
    "BINDER": "纳米抗体NB32 (VHH, Camel VHH expressed in E. coli and purified on a nickel column; It was detected through an HA tag; also called 抗体株NB32) VHH: QVQLQESGGGSVQAGGSLTLSCAASEYKHRYSTYSMGWFRQAPGKEREGVAAIYSDGGTRYADSVKGRFTISKDNAKSTLYLLMNSLKPEDTAMYYCAASQTFRGWYPYEYNYWGQGTQVTVSS",
    "log10(Kd)": 0.51
  },
  {
    "BINDER": "纳米抗体2D4 (VHH, Camel VHH expressed in E. coli and purified on a nickel column; It was detected through an HA tag; also called 抗体株2D4) VHH: LQESGGGSVQIGGSLRLSCAASGYTYMRYSSFCMGWFRQAPGKEREGVAAIDSGRRTTHADSVKGRFTISRDNAKNTLYLQMNSLKPEDTAMYYCAARDVGYCGGYWARRDFAYWGQGTQVTVSS",
    "log10(Kd)": -0.34
  }
]

Please turn your attention to the following entry.
Query block: Fill in: log10(Kd) of 纳米抗体NB88 (VHH, Camel VHH expressed in E. coli and purified on a nickel column; It was detected through an HA tag; also called 抗体株NB88) VHH: QVQLQESGGGSVQAGESLRLSCAASRYGYSRNWMGWFRQPPGKEREGVAVIYTGGSKTAYADAVKGRFIISLDNANNTVYLQMNSLKPEDTAMYYCAAGLVAYGRRWSPEAYKYWGQGTQVTVSS is ___
Result block: 0.59
